Listing of recorded IC50 by entry.
# assayed target: Interleukin-23 receptor (Homo sapiens)
# Sequence (Q5VWK5 whole entry): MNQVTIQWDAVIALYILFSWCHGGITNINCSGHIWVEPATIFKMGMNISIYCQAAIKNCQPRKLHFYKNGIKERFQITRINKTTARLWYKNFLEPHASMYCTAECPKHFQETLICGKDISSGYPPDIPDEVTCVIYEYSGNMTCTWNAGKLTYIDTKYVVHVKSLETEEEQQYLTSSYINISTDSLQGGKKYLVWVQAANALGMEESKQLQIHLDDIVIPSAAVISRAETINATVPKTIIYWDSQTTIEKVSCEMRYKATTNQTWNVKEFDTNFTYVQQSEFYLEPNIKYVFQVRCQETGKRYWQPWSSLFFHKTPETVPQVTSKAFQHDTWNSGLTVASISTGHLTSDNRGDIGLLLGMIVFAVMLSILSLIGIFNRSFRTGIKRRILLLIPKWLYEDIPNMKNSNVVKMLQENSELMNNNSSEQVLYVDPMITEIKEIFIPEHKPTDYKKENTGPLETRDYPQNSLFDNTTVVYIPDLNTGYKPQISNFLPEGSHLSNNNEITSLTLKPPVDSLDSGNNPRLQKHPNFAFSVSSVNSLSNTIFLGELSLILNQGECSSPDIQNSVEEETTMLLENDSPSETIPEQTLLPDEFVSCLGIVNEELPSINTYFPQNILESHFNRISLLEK
# method summary: Inhibition of interleukin-23 receptor in human DB cells assessed as reduction in IL-23-stimulated STAT3 phosphorylation incubated for 30 mins by HTRF assay
# Type: cell-based
Where a SMILES comes first, the peptide text is derived from it. [ ]: non-standard residue; d: D form. 2Nal = N[C@@H](Cc1ccc2ccccc2c1)C(=O)O; AEF = NCCOc1ccc(C[C@H](N)C(=O)O)cc1; Pen = CC(C)(S)[C@H](N)C(=O)O; Aib = CC(C)(N)C(=O)O

Recorded results for 2 molecules are shown here.
- COc1ccc(C[C@H](NC(=O)[C@@H](NC(=O)[C@H](CCC(N)=O)NC(=O)[C@H](Cc2c[nH]c3ccccc23)NC(=O)[C@@H](NC(=O)[C@H](CCC(N)=O)NC(=O)[C@@H](NC(=O)CCCC(=O)O)C(C)(C)S)[C@@H](C)O)C(C)(C)S)C(=O)N[C@@H](Cc2ccc3ccccc3c2)C(=O)N[C@@](C)(CCCCN)C(=O)N[C@@H](CCCCNC(C)=O)C(=O)N[C@@H](CC(N)=O)C(=O)NCC(N)=O)cc1: 10 to 25 nM
- CC(=O)NCCCC[C@H](NC(=O)C(C)(C)NC(=O)[C@H](Cc1ccc2ccccc2c1)NC(=O)[C@H](Cc1ccc(OCCN)cc1)NC(=O)[C@@H](NC(=O)[C@H](CCC(N)=O)NC(=O)[C@H](Cc1c[nH]c2ccccc12)NC(=O)[C@@H](NC(=O)[C@H](CCC(N)=O)NC(=O)[C@@H](NC(=O)[C@@H](NC(C)=O)[C@@H](C)O)C(C)(C)S)[C@@H](C)O)C(C)(C)S)C(=O)N[C@@H](CC(N)=O)C(=O)N[C@@H](CC(N)=O)C(N)=O (Ac-T[Pen]QTWQ[Pen][AEF][2Nal][Aib]K(Ac)NN-NH2): < 10 nM

Okay, next one:
Item: COc1ccc(C[C@H](NC(=O)[C@@H](NC(=O)[C@H](CCC(N)=O)NC(=O)[C@H](Cc2c[nH]c3ccccc23)NC(=O)[C@@H](NC(=O)[C@H](CCC(N)=O)NC(=O)[C@@H](NC(C)=O)C(C)(C)S)[C@@H](C)O)C(C)(C)S)C(=O)N[C@@H](Cc2ccc3ccccc3c2)C(=O)NC(C)(C)C(=O)N[C@@H](CCCCNC(C)=O)C(=O)N[C@@H](CC(N)=O)C(=O)N[C@@H](CC(N)=O)C(N)=O)cc1 | IC50: < 10 nM

---

# method summary: Half life in simulated gastric fluid at 20 uM by LC-MS/MS analysis
# Assay type: ADME
assay endpoint: half-life at 20 µM

• CC(=O)N[C@H]1CCSC[C@@H](C(=O)N[C@@H](Cc2ccc(OCCN)cc2)C(=O)N[C@@H](Cc2ccc3ccccc3c2)C(=O)NC(C)(C)C(=O)N[C@@H](CCC(=O)O)C(=O)N[C@@H](CC(N)=O)C(=O)NCC(N)=O)NC(=O)[C@H](CCC(N)=O)NC(=O)[C@H](Cc2c[nH]c3ccccc23)NC(=O)[C@H]([C@@H](C)O)NC(=O)[C@H](CCC(N)=O)NC1=O = 2 to 3 h
• COc1ccc(C[C@H](NC(=O)[C@@H](NC(=O)[C@H](CCC(N)=O)NC(=O)[C@H](Cc2c[nH]c3ccccc23)NC(=O)[C@@H](NC(=O)[C@H](CC(N)=O)NC(=O)[C@@H](NC(C)=O)C(C)(C)S)[C@@H](C)O)C(C)(C)S)C(=O)N[C@@H](Cc2ccc3ccccc3c2)C(=O)N[C@@H](CCC(C)C)C(=O)N[C@@H](CCCCNC(C)=O)C(=O)N[C@@H](CC(N)=O)C(=O)NCCC(N)=O)cc1 = < 1 h

Please examine the following record next.
Measured half-life at 20 µM, CC(=O)N[C@H](C(=O)N[C@@H](CCC(N)=O)C(=O)N[C@H](C(=O)N[C@@H](Cc1c[nH]c2ccccc12)C(=O)N[C@@H](CCC(N)=O)C(=O)N[C@H](C(=O)N[C@@H](Cc1ccc(OCCN)cc1)C(=O)N[C@@H](Cc1ccc2ccccc2c1)C(=O)N[C@@H](CCC(C)C)C(=O)N[C@@H](CCC(=O)O)C(=O)N[C@@H](CC(N)=O)C(=O)N[C@@H](C)C(N)=O)C(C)(C)S)[C@@H](C)O)C(C)(C)S : < 1 h

---

# assayed target: Interleukin-23 receptor (Homo sapiens, UniProt Q5VWK5)
# method summary: Inhibition of interleukin-23 binding to human interleukin-23 receptor incubated for 2 hrs by competitive binding ELISA
Reported IC50 values for the following compounds.

- CC(=O)N[C@@H](CS)C(=O)N[C@@H](CCC(N)=O)C(=O)N[C@H](C(=O)N[C@@H](Cc1c[nH]c2ccccc12)C(=O)N[C@@H](CCC(N)=O)C(=O)N[C@@H](CS)C(=O)N[C@@H](Cc1ccc(O)cc1)C(=O)N[C@@H](Cc1c[nH]c2ccccc12)C(=O)N[C@@H](CCCNC(=N)N)C(=O)N[C@@H](CCCNC(=N)N)C(=O)N[C@@H](CC(N)=O)C(=O)NCC(=O)NCCOCC(=O)N[C@H](CCCCN)C(N)=O)[C@@H](C)O: < 500 nM

Looking up COc1ccc(C[C@H](NC(=O)[C@@H](NC(=O)[C@H](CCC(N)=O)NC(=O)[C@H](Cc2c[nH]c3ccccc23)NC(=O)[C@@H](NC(=O)[C@H](CCC(N)=O)NC(=O)[C@@H](NCN2C(=O)COCC2=O)C(C)(C)S)[C@@H](C)O)C(C)(C)S)C(=O)N[C@@H](Cc2ccc3ccccc3c2)C(=O)N[C@@](C)(CCCCN)C(=O)N[C@@H](CCCCNC(C)=O)C(=O)N[C@@H](CC(N)=O)C(=O)NCC(N)=O)cc1 , I see its IC50 listed as 25 to 100 nM

---

# assayed target: Interleukin-23 receptor (Homo sapiens, UniProt Q5VWK5)
# method summary: Inhibition of interleukin-23 binding to human interleukin-23 receptor incubated for 2 hrs by competitive binding ELISA
pIC50: −log10 of the molar value. Where a SMILES comes first, the peptide text is derived from it.
Recorded measurements of pIC50, one per entry

Below: 8 molecules and their reported pIC50.
* CC(C)[C@H](NC(=O)[C@H](Cc1c[nH]c2ccccc12)NC(=O)[C@H](CC(=O)O)NC(=O)CN(C)C(=O)[C@@H](N)CS)C(=O)N[C@@H](CS)C(=O)N[C@@H](Cc1ccc(O)cc1)C(=O)N[C@@H](Cc1cccc2ccccc12)C(=O)N[C@@H](Cc1cnc[nH]1)C(=O)N[C@H](C(=O)N[C@@H](Cc1ccccc1)C(=O)O)[C@@H](C)O | < 6.00
* CC(=O)N[C@H](C(=O)N[C@@H](CN)C(=O)N[C@H](C(=O)N[C@@H](Cc1c[nH]c2ccccc12)C(=O)N[C@@H](CCC(N)=O)C(=O)N[C@H](C(=O)N[C@@H](Cc1ccc(OCCN)cc1)C(=O)N[C@@H](Cc1ccc2ccccc2c1)C(=O)N[C@@](C)(CCCCN)C(=O)N[C@@H](CCC(=O)O)C(=O)N[C@@H](CC(N)=O)C(=O)NCC(N)=O)C(C)(C)S)[C@@H](C)O)C(C)(C)S | > 8.00
* CC(=O)NCCCC[C@H](NC(=O)[C@](C)(CCCCN)NC(=O)[C@H](Cc1c[nH]c2ccccc12)NC(=O)[C@H](Cc1ccc(OCCN)cc1)NC(=O)[C@@H]1CSCC[C@H](NC(C)=O)C(=O)N[C@@H](CCC(N)=O)C(=O)N[C@@H]([C@@H](C)O)C(=O)N[C@@H](Cc2c[nH]c3ccccc23)C(=O)N[C@@H](CCC(N)=O)C(=O)N1)C(=O)NC1CNC(=O)CNC1=O (stereo not given in full) | 7.00 to 7.60
* CC(C)[C@H](NC(=O)[C@H](Cc1c[nH]c2ccccc12)NC(=O)[C@@H](NC(=O)[C@H](CCC(N)=O)NC(=O)[C@@H](N)CS)[C@@H](C)O)C(=O)N[C@@H](CS)C(=O)N[C@@H](Cc1ccc(O)cc1)C(=O)N[C@@H](Cc1c[nH]c2ccccc12)C(=O)N[C@@H](Cc1cnc[nH]1)C(=O)N[C@H](C(=O)N[C@@H](Cc1ccc(O)cc1)C(=O)NCC(N)=O)[C@@H](C)O (H-CQTWVCYWHTYG-NH2) | < 6.00
* CC(=O)N[C@H](C(=O)N[C@@H](CCC(N)=O)C(=O)N[C@H](C(=O)N[C@@H](Cc1c[nH]c2ccccc12)C(=O)N[C@@H](CCC(N)=O)C(=O)N[C@H](C(=O)N[C@@H](Cc1ccc(O)cc1)C(=O)N[C@@H](Cc1ccc2ccccc2c1)C(=O)N[C@@](C)(CCCN)C(=O)N[C@@H](CCC(=O)O)C(=O)N[C@@H](CC(N)=O)C(=O)NCC(N)=O)C(C)(C)S)[C@@H](C)O)C(C)(C)S | 7.00 to 7.60
* CC(=O)NCCCC[C@H](NC(=O)[C@](C)(CCCCN)NC(=O)[C@H](Cc1ccc2ccccc2c1)NC(=O)[C@H](Cc1ccc(C(N)=O)cc1)NC(=O)[C@@H]1CSCC[C@H](NC(C)=O)C(=O)N[C@@H](CCC(N)=O)C(=O)N[C@@H]([C@@H](C)O)C(=O)N[C@@H](Cc2c[nH]c3ccccc23)C(=O)N[C@@H](CCC(N)=O)C(=O)N1)C(=O)N[C@@H](CC(N)=O)C(=O)NCC(N)=O | 7.60 to 8.00
* CC(=O)N[C@@H](CC(=O)O)C(=O)N[C@H](C(=O)N1CCC[C@H]1C(=O)N[C@@H](CCCNC(=N)N)C(=O)N[C@@H](CS)C(=O)N[C@@H](CCCNC(=N)N)C(=O)N[C@H](C(=O)N[C@@H](Cc1c[nH]c2ccccc12)C(=O)N[C@@H](CCC(=O)O)C(=O)N[C@@H](CS)C(=O)N[C@@H](Cc1ccc(O)cc1)C(=O)N[C@@H](Cc1c[nH]c2ccccc12)C(=O)N[C@@H](Cc1cnc[nH]1)C(=O)N[C@H](C(=O)N[C@@H](Cc1ccccc1)C(=O)NCC(N)=O)[C@@H](C)O)[C@@H](C)O)[C@@H](C)O | 6.00 to 6.30
* CC(=O)N[C@@H](CS)C(=O)N[C@@H](C)C(=O)N[C@@H](CC(=O)O)C(=O)N[C@@H](Cc1c[nH]c2ccccc12)C(=O)N[C@H](C(=O)N[C@@H](CS)C(=O)N[C@@H](Cc1ccc(O)cc1)C(=O)N[C@@H](Cc1ccc(C(N)=O)cc1)C(=O)N[C@@H](CCCN)C(=O)N[C@@H](CN)C(=O)N[C@@H](Cc1ccccc1)C(=O)NCC(=O)NCCOCC(=O)N[C@H](CCCCN)C(N)=O)C(C)C | 5.22

The recorded pIC50 for CC(=O)N[C@H](C(=O)NCC(=O)N[C@H](C(=O)N[C@@H](Cc1c[nH]c2ccccc12)C(=O)N[C@@H](CCC(N)=O)C(=O)N[C@H](C(=O)N[C@@H](Cc1ccc(OCCN)cc1)C(=O)N[C@@H](Cc1ccc2ccccc2c1)C(=O)N[C@@](C)(CCCCN)C(=O)N[C@@H](CCC(=O)O)C(=O)N[C@@H](CC(N)=O)C(=O)NCC(N)=O)C(C)(C)S)[C@@H](C)O)C(C)(C)S is 7.60 to 8.00

The recorded pIC50 for CC(=O)N[C@@H](CS)C(=O)N[C@@H](C)C(=O)N[C@@H](CC(=O)O)C(=O)N[C@@H](Cc1c[nH]c2ccccc12)C(=O)N[C@H](C(=O)N[C@@H](CS)C(=O)N[C@@H](Cc1ccc(O)cc1)C(=O)N[C@@H](Cc1c[nH]c2ccccc12)C(=O)N[C@@H](Cc1cnc[nH]1)C(=O)N[C@H](C(=O)N[C@@H](Cc1ccccc1)C(=O)NCC(=O)N[C@@H](C)C(=O)N[C@@H](C)C(=O)N[C@H](CCCCN)C(=O)O)[C@@H](C)O)C(C)C is > 6.30
